All figures here come from the nanobody polyreactivity screen of Harvey et al. (2022).

- assayComment: yeast display, Sf9 membrane polyspecificity reagent, FACS + sequencing; frameworks hold sequencing errors
readoutName: polyreactivity (PSR sort gate)

Example entries and their recorded answers appear below.
sequence: QVQLVESRGGLVQAGGSLRLSSAASGRTFRSYVMGWYTPAPGKERQLVAAITRSGGSTYYADSVKGRFTISRDNAKNTVYLQMNSLKPEDTAVYYCATDRWYYYPDYYPYGEYDYWGQGTQVTVSS
readoutName: polyreactivity (PSR sort gate)
measuredValue: low polyreactivity

sequence: QVQLVESGGGLVQAGGSLRLSCAPSGRTFTAYAMGWYRQAPGKERELVAAITSGGSTYYADSVKGRFTISRDNAKNTVYLKRKSLKPEDTAVYYCATDLYSFYWPEYEYWGQGTQVTLSS
readoutName: polyreactivity (PSR sort gate)
measuredValue: low polyreactivity

sequence: QVQLVESGGGLVQAGGSLRLSCAASGSISWAYVMGWYRQAPGKERELVAAISSGTSTYYADSVKGRFTLSRDNAKKTVYLQMNSLKPEDTAVYYCAAYYYSYPTNGGYGYWGQGTQVTVSS
readoutName: polyreactivity (PSR sort gate)
measuredValue: low polyreactivity

sequence: QVQLVESGGGLVQAGGTLRLSCAASGRTFYYYTMGWYRQAPGKERDLVAAISSTGNTYYADSVKGRFTISRDNAKNSVYLQMNSLNPADTALYYCAASGGSSDAYWGQGTQVTVSS
readoutName: polyreactivity (PSR sort gate)
measuredValue: high polyreactivity

stdin: Need polyreactivity (PSR sort gate), item QVQLVESGGGLVQAGGSLRLSCAASGFTFNYYPMGWYRQAPGKERELVAAIDSGGNTYYADSVKGRFTISRDNAKNTVYLQMNSLKPEDTAVYYCAAYRDYQYDFWGQGTQVTVSS
stdout: low polyreactivity

stdin: Need polyreactivity (PSR sort gate), item QVQHVESGGGLVQAGGSLRLSCSASGFTLTAYAMGWSRQPPGKEREFVAAISTSGTRTYYADSVKGRFTISRDNAKNTVYLQMNSLKQEDTAVYYCAARYSGYQYWKFNYWGQGTQVTVSS
stdout: high polyreactivity

stdin: Need polyreactivity (PSR sort gate), item QVHLVDSGGGLVQAGGSLSLRCAASRRSFVPYAMGWYSQGPGKEREFLADITWSTCTSTYYADSEKGRFTISRDNAKNTVYLHMNSLKPEDTAVYYCAVDIWWPNWYYIYWGQGTQVTLSS
stdout: low polyreactivity

stdin: Need polyreactivity (PSR sort gate), item QVQLVESGGGLVQAGGSLRLSCAASGYIFFTYTMGWYRQAPGKERELVAAINGSVGSTYYADSVKGRFTISRDNAKNTVYLQMNSLKPEDTAVYYCAAEVVDFGYSYEWEDDYWGQGTQVTVSS
stdout: high polyreactivity

stdin: Need polyreactivity (PSR sort gate), item QVQHVESGGGLVQAGGSLRLSCAASGSTFPANAMGRYRQAPVKERELVAVISSGGRTYYADSVKGRFTISRDNAKNTVYLQLNSLKPEDTEVYYCAAGSYAGSGPSPWLEYWGQGTQVTVSS
stdout: high polyreactivity

stdin: Need polyreactivity (PSR sort gate), item QVQLVESGGGLVQAGGSLRLSCAASGSTFLINAMGWYRQAPGKEREFVAAITSSGGTTYYADSVKGRFTISRDNAKNTVYLQMNSLKPEDTAVYYCAAVSRSRREKKFDYWGQGTQVTVSS
stdout: low polyreactivity

====

- assayComment: yeast display, Sf9 membrane polyspecificity reagent, FACS + sequencing; frameworks hold sequencing errors
readoutName: polyreactivity (PSR sort gate)

Example entries and their recorded answers appear below.
sequence: QVQLVESGGGLVQAGGSLRLSCAASGFTFGRYAMGWYRQAPGKVRELVAAINWSGGSTYYADSVKGRFTISRDNAKNTVYLQMNSLKPEDPAVYYCNKGVSRSSVRGDYWGQGTQVTVSS
polyreactivity (PSR sort gate): high polyreactivity
//
sequence: QVQLVESGGGLVQAGGSLRLSCAASGAIFVAYAMGWYRQAPGKDRELVAAITYSAGSTYYADSVKGRFTISRDNAKNTVYLQMNSLKPEDTAVYYCAADALVYSFIGYEYWGQGTQVTLSS
polyreactivity (PSR sort gate): low polyreactivity
//
sequence: QVQLVESGGGLVQAGGSLRLSCAASGRTFLVYTMGWYRQAPGKERELVAAISWSDGSTYYADSVKGRFTISRDNAKNTVYLQMNSLKPEDTAVYYCAARRTGYLYRYGYWGQGTQVTVSS
polyreactivity (PSR sort gate): low polyreactivity
//
sequence: QVQLVESGGGLVQAGGSLRLSCAPSGFIFHKYVMGWYRQAPGKERELVAAISRSGASTYYADSVKGRFTISRDNAKNTVYLQMNSLKPEDTAVYYCNAQPGKWEYDYWGQGTQVTVSS
polyreactivity (PSR sort gate): high polyreactivity

stdin: Need polyreactivity (PSR sort gate), item QVQLLESGAGLVQAGGSLRLICAASVNTFYWYAMGRYRQAPGKERELVAAITWSGGSTHYADSVKGRFTISRDNAKNTVYLQMNSLTPEYTAVYYCAARYFRWWDMGYWGQGTQVSVSS
stdout: high polyreactivity

stdin: Need polyreactivity (PSR sort gate), item QVQLVESGGGLVQAGGSLRLSCAASGSILVSYAMGWYRPAPGKERELVAAITSGGRTKYADSVKGRFTISRDNAKNTVYLQMNSLKPEDTAVYYCAADDPLSYQFDYWGQGTQVTVSS
stdout: high polyreactivity

stdin: Need polyreactivity (PSR sort gate), item QVQLVESGGGLVQAGGSLRISCAASGRTFYRNAMGWNSKAPGKERELVAAIRRSDGSTYYADSVKGRFTISRDNAKNTVYLQMNSLKPEDTAVYYCAAGQGSRNLYYYWGQGTQVTVSS
stdout: high polyreactivity

stdin: Need polyreactivity (PSR sort gate), item QVHLVETGGGLVQAGGSLRLSCAASGFIFIWYALGGYRQAPGKERELVAAITSDGGRTYYADSVKGRFTISRDNAKNSVYFQMNSLKPEDTAVYYCYAVSSATKYEYWGQGTQVTVSS
stdout: high polyreactivity

====

- assayComment: yeast display, Sf9 membrane polyspecificity reagent, FACS + sequencing; frameworks hold sequencing errors
readoutName: polyreactivity (PSR sort gate)

sequence: QVQLVESGGGLVQAGGSLRISCAASGSIFTRYAMGWYRQAPGKERELVAAIRTSGGSTYYADSVKARFTISRDNAKNTVYFQMNSLKPEDTAVYYCARRYYKSNFYYWGQGTLVTVSS
measuredValue: high polyreactivity
//
sequence: QVQLVESGGGLVQAGGSLRLSCAASGGIFHSNAMGWYRQAPGKERELVAAISYSGGSTYYADSVKGRFTISRDNAKNTVYLQMNSLKPEDTAVYYCAKRYYGSPQLRYYYWGQGTQVTVSS
measuredValue: high polyreactivity

====

- assayComment: yeast display, Sf9 membrane polyspecificity reagent, FACS + sequencing; frameworks hold sequencing errors

sequence: QVQLVESGGGLVQAGGSLRLSCAASGSIFRKNAMGWYRQAPGKERELVAAISSSGGRTYYADSVKGRFTISRDNAKNTVYLQMNSLKPEDTAVYYCAAVYSKGGSSRISPGDDYWGQGTQVTVSS
polyreactivity (PSR sort gate): high polyreactivity

sequence: QVQLVESGGGLVQAGGSLRLSCAASGFILTLYAMGWYRQAPGKERELVASISRRGGSTYYADSVKGRFTISRDNAKNTVYLQMNSLKPEDTAVYYCNAQGYRRGYDYWGQGTQVTVSS
polyreactivity (PSR sort gate): high polyreactivity

====

- assayComment: yeast display, Sf9 membrane polyspecificity reagent, FACS + sequencing; frameworks hold sequencing errors
readoutName: polyreactivity (PSR sort gate)

Example entries and their recorded answers appear below.
sequence: QVQLVESGGGLVQAGGSLRLSCAASGSTFSPNAMGWYRQAPGKERELVADIDWSGGGTYYADSVKGRFTISRDNAKNTVYLQMNSLKPEDTAVYYCAAGYVWWPFEYDYWGQGTQVTVSS
measuredValue: high polyreactivity
//
sequence: QVQLLESGGGLVQAGGSLRLTCAASGSTFPDYAMGWYRQAPGKEREFVASITWSDGSTYYADSVKGRFTISRDNAKNSVYLQMNRLKQEDTAVYYCNADYVYYYIPVVYEYDYWGQGTQVTVSS
measuredValue: high polyreactivity
//
sequence: QVQLVESGGGLVQAGGSLRLSCAASGFIFYLYAMGWYRQAPGTERELVAAISSSGGGTYYADSVKGRFTISRDNAKNTVYLQMNSLKPEDTAVYYCNVPLSYRSEYDYWGQGTQVTVSS
measuredValue: high polyreactivity
//
sequence: QVQLVESGGGLVQAGGSLRLSCADSGSIFLRYAMGWYRQAPGKERELVAAISCRGGSTYYADSVKGRFTISRDNAKNTVYLQMNSQKPEDTAVYYCAAYRGRSLEYDYWGQGTQVNVSS
measuredValue: high polyreactivity

stdin: Need polyreactivity (PSR sort gate), item QVQLVESGRGLVQAGGSLRLSCHASGFTFSPYTMGWSRQAPGKERELVATIRYDCTSTYYADSVKGRFTISRDNAKNTVYLQMNSLKPEDTAVYYCAADIWRVYSTFYYWGQGTEVTVSS
stdout: low polyreactivity
